# tgt: CDK7/Cyclin H/MAT1 complex (Homo sapiens)
# test: CDK7 kinase inhibition assay (Caliper/LabChip EZ Reader)
measured.metric: IC50

// below: answered compounds
[
  {
    "compound": "Cc1noc(C)c1-c1ccc2c(-c3nc(NC4CC[C@@H]4N4CCCC4)ncc3C(F)(F)F)c[nH]c2n1 (stereo in doubt) [Compound 149]",
    "readout.value": "< 30 nM"
  },
  {
    "compound": "CCO[C@@H]1CNC[C@H]1Nc1ncc(C(F)(F)F)c(-c2c[nH]c3cc(C#N)ccc23)n1 (relative stereo) [Compound 111]",
    "readout.value": "100 to 500 nM"
  },
  {
    "compound": "CC(=O)N[C@H]1CCC[C@@H]1Nc1ncc(C(F)(F)F)c(-c2c[nH]c3cc(C#N)ccc23)n1 [Compound 120]",
    "readout.value": "> 500 nM"
  }
]

# ---- query compound ----
IC50 reported for this compound Cc1noc(C)c1-c1ccc2c(-c3nc(N[C@@H]4C[C@@H]5CC[C@H]4N5)ncc3C(F)(F)F)c[nH]c2n1 [Compound 140] : < 30 nM

* * *

# tgt: CDK7/Cyclin H/MAT1 complex (Homo sapiens, UniProt P50613)
# Sequence (P50613 whole entry): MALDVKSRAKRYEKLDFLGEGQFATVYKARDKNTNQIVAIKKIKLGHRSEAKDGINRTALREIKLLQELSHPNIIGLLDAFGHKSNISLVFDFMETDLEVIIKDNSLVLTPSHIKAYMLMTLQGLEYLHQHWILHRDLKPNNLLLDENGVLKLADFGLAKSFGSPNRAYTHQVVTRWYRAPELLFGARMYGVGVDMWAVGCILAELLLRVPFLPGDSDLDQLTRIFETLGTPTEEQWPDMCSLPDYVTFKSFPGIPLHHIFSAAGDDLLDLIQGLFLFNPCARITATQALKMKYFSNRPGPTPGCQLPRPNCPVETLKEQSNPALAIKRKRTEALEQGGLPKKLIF
# Sequence (P51946 whole entry partner): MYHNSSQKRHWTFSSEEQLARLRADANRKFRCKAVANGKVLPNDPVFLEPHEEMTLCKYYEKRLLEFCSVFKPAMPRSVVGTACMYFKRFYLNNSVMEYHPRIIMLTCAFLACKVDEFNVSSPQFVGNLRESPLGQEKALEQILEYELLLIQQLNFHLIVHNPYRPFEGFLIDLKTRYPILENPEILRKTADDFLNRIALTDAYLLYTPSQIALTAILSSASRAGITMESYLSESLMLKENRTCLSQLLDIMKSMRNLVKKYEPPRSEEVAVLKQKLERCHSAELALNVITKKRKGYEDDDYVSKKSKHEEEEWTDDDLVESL
# Sequence (P51948 whole entry partner): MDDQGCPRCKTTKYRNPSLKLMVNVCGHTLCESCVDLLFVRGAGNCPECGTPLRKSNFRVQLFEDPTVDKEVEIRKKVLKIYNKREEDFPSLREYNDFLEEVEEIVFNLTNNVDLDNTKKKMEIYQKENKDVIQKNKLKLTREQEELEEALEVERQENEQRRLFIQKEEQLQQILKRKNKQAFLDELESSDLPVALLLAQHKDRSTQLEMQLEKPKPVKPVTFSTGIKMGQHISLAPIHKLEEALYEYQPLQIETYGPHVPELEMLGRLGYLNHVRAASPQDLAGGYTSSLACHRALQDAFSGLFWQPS
# test: CDK7 kinase inhibition assay (Caliper/LabChip EZ Reader)
pIC50: −log10 of the molar value.
measured.metric: pIC50

Some entries whose results are on file:
[
  {
    "compound": "C[C@H]1C[C@H](Nc2ncc(C(F)(F)F)c(-c3c[nH]c4cc(C#N)ccc34)n2)CN1 [Compound 104]",
    "measured.metric": "pIC50",
    "readout.value": "7.00 to 7.52"
  },
  {
    "compound": "Cc1noc(C)c1-c1ccc2c(-c3nc(N[C@H]4C[C@H]5CC[C@@H]4N5)ncc3C(F)(F)F)c[nH]c2n1 [Compound 139]",
    "measured.metric": "pIC50",
    "readout.value": "> 7.52"
  },
  {
    "compound": "N#Cc1ccc2c(-c3nc(N[C@H]4Cc5ccccc5[C@@H]4N)ncc3C(F)(F)F)c[nH]c2c1 [Compound 119]",
    "measured.metric": "pIC50",
    "readout.value": "> 7.52"
  },
  {
    "compound": "CN(C)[C@H]1CC[C@@H]1Nc1ncc(C(F)(F)F)c(-c2c[nH]c3cc(C#N)ccc23)n1 [Compound 126]",
    "measured.metric": "pIC50",
    "readout.value": "7.00 to 7.52"
  },
  {
    "compound": "CP(C)(=O)c1c(C(N)=O)ccc2c(-c3nc(N[C@H]4CCC[C@@H]4N)ncc3C(F)(F)F)c[nH]c12 [Compound 162]",
    "measured.metric": "pIC50",
    "readout.value": "> 7.52"
  }
]

Field pIC50 (entry Cc1noc(C)c1-c1ccc2c(-c3nc(N[C@H]4CCC[C@H]4N4CC(F)(F)C4)ncc3C(F)(F)F)c[nH]c2n1 [Compound 167] ) reads < 6.30

Notebook: Cc1noc(C)c1-c1ccc2c(-c3nc(N[C@@H]4C[C@@H]5CC[C@H]4N5)ncc3C(F)(F)F)c[nH]c2c1 [Compound 137] , pIC50 read as > 7.52

Form field pIC50, entry N#Cc1ccc2c(-c3nc(N[C@@H]4C[C@@H]5CC[C@H]4N5)ncc3C(F)(F)F)c[nH]c2c1 [Compound 115] : 7.00 to 7.52

* * *

# tgt: CDK12 (aa686-1082)/Cyclin K complex (Homo sapiens, UniProt Q9NYV4)
# Sequence (Q9NYV4 686-1082): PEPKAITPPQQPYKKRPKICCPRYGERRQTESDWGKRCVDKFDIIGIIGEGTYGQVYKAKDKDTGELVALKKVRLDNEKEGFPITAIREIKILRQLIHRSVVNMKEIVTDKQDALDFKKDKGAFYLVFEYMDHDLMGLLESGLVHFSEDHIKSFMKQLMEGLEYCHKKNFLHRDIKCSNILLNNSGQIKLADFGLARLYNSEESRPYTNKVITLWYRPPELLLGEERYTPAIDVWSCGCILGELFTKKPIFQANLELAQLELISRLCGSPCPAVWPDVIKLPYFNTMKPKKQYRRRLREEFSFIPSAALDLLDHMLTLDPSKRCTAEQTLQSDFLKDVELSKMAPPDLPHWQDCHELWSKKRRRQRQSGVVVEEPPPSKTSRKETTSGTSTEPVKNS
# Sequence (O75909 whole entry partner, the tested form may be a part): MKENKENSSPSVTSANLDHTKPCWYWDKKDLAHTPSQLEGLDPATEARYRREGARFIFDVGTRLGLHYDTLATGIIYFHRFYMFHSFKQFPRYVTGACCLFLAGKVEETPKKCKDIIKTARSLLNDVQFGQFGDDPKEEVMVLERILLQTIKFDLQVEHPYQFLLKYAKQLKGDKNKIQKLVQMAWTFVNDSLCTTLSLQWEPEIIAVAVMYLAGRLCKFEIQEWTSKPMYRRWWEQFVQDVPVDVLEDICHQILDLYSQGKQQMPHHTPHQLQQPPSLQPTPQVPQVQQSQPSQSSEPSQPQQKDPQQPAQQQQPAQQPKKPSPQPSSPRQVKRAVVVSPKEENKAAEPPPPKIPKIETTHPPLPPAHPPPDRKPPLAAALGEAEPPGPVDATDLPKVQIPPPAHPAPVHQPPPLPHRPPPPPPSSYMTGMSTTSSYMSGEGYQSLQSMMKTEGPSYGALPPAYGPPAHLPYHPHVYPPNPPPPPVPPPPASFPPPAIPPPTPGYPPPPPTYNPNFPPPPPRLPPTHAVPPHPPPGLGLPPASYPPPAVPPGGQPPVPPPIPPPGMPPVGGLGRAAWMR
# test: CDK12 kinase inhibition assay (Caliper/LabChip EZ Reader)
measured.metric: IC50

Solved cases below.
[
  {
    "molecule": "Cc1noc(C)c1-c1ccc2c(-c3nc(N[C@H]4CC[C@@H]4N)ncc3C(F)(F)F)c[nH]c2n1 [Compound 129]",
    "tgt": "CDK12 (aa686-1082)/Cyclin K complex (Homo sapiens, UniProt Q9NYV4)",
    "measured.metric": "IC50",
    "readout.value": "> 500 nM"
  },
  {
    "molecule": "N#Cc1ccc2c(-c3nc(N[C@H]4Cc5ccccc5[C@@H]4N)ncc3C(F)(F)F)c[nH]c2c1 [Compound 119]",
    "tgt": "CDK12 (aa686-1082)/Cyclin K complex (Homo sapiens, UniProt Q9NYV4)",
    "measured.metric": "IC50",
    "readout.value": "> 500 nM"
  },
  {
    "molecule": "COCCN[C@H]1CCC[C@@H]1Nc1ncc(C(F)(F)F)c(-c2c[nH]c3cc(C#N)ccc23)n1 [Compound 123]",
    "tgt": "CDK12 (aa686-1082)/Cyclin K complex (Homo sapiens, UniProt Q9NYV4)",
    "measured.metric": "IC50",
    "readout.value": "> 500 nM"
  }
]

Switching to the query record.
IC50 measured on COC1CN([C@H]2CCC[C@@H]2Nc2ncc(C(F)(F)F)c(-c3c[nH]c4nc(-c5c(C)noc5C)ccc34)n2)C1 [Compound 164] = > 500 nM

* * *

The following compounds are listed with their measured IC50 values.
# Test system: MB453 cells
# test: Inhibition of cell proliferation, CyQUANT Direct, MB453
# Type: cell-based, human
# condition: Homo sapiens; MB453 triple negative breast cancer cells, 72-hour; read-out: MB 453 proliferation calculated IC50

[
  {
    "compound": "CCN[C@H]1CC[C@@H]1Nc1ncc(C(F)(F)F)c(-c2c[nH]c3cc(C#N)ccc23)n1",
    "IC50": "100 to 500 nM"
  },
  {
    "compound": "N#Cc1ccc2c(-c3nc(N[C@H]4CCC[C@@H]4N4CCCC4)ncc3C(F)(F)F)c[nH]c2c1",
    "IC50": "100 to 500 nM"
  },
  {
    "compound": "C[C@H]1C[C@H](Nc2ncc(C(F)(F)F)c(-c3c[nH]c4cc(C#N)ccc34)n2)CN1",
    "IC50": "100 to 500 nM"
  }
]

Now take the following compound into account.
Value of IC50 reported for the compound Cc1noc(C)c1-c1ccc2c(-c3nc(N[C@H]4CCCC4N4CCCC4)ncc3C(F)(F)F)c[nH]c2n1 (some centres unmarked) is < 100 nM

* * *

Recorded measurements of IC50, one per entry
# System: HCC70 cells
# test: Inhibition of cell proliferation, CyQUANT Direct, HCC70
# Assay type: cell-based, human
# condition: Homo sapiens; HCC70 triple negative breast cancer cells, 72-hour; read-out: HCC 70 proliferation calculated IC50

Record excerpt, results attached:
[
  {
    "compound": "Cc1noc(C)c1-c1ccc2c(-c3nc(N[C@H]4CCC[C@@H]4NCCF)ncc3C(F)(F)F)c[nH]c2n1 [Compound 151]",
    "IC50": "< 100 nM"
  },
  {
    "compound": "CP(C)(=O)c1c(C#N)ccc2c(-c3nc(N[C@H]4CCC[C@@H]4N)ncc3C(F)(F)F)c[nH]c12 [Compound 161]",
    "IC50": "< 100 nM"
  },
  {
    "compound": "Cc1noc(C)c1-c1ccc2c(-c3nc(N[C@H]4CCC[C@@H]4N4CC[C@H](F)C4)ncc3C(F)(F)F)c[nH]c2n1 [Compound 150]",
    "IC50": "500 to 2000 nM"
  },
  {
    "compound": "CN1CC[C@H](Nc2ncc(C(F)(F)F)c(-c3c[nH]c4cc(C#N)ccc34)n2)C1 [Compound 109]",
    "IC50": "500 to 2000 nM"
  },
  {
    "compound": "CCN[C@H]1CC[C@@H]1Nc1ncc(C(F)(F)F)c(-c2c[nH]c3nc(-c4c(C)noc4C)ccc23)n1 [Compound 160]",
    "IC50": "< 100 nM"
  }
]

Recorded IC50 (compound N[C@H]1CCC[C@@H]1Nc1ncc(C(F)(F)F)c(-c2c[nH]c3c(Cl)c(O)ccc23)n1 [Compound 168] ): 100 to 500 nM

Short answer for N#Cc1ccc2c(-c3nc(N[C@@H]4C[C@@H]5CCC4N5)ncc3C(F)(F)F)c[nH]c2c1 (racemic) [Compound 106] : IC50 was 100 to 500 nM

The measured IC50 associated with COCCN[C@H]1CCC[C@@H]1Nc1ncc(C(F)(F)F)c(-c2c[nH]c3cc(C#N)ccc23)n1 [Compound 123] reads 100 to 500 nM

Value of IC50 reported for the compound Cc1noc(C)c1-c1ccc2c(-c3nc(N[C@H]4CCC[C@@H]4N4CC(F)(F)C4)ncc3C(F)(F)F)c[nH]c2n1 [Compound 166] is > 2000 nM

Entry Cc1noc(C)c1-c1ccc2c(-c3nc(N[C@@H]4C[C@@H]5CC[C@H]4N5)ncc3C(F)(F)F)c[nH]c2c1 [Compound 137] , IC50 reported as < 100 nM

* * *

Property: pIC50; scope: individual molecules
# Tested on: MB453 cells
# test: Inhibition of cell proliferation, CyQUANT Direct, MB453
# Assay type: cell-based, human
# condition: Homo sapiens; MB453 triple negative breast cancer cells, 72-hour; read-out: MB 453 proliferation calculated IC50
pIC50: −log10 of the molar value.

[
  {
    "molecule": "Cc1noc(C)c1-c1ccc2c(-c3nc(N[C@H]4CCC[C@@H]4N4CC[C@@H](F)C4)ncc3C(F)(F)F)c[nH]c2n1",
    "readout.value": "6.30 to 7.00"
  }
]

pIC50 value, target or system MB453 cells, for "N#Cc1ccc2c(-c3nc(N[C@H]4CCC[C@@H]4N4CCOCC4)ncc3C(F)(F)F)c[nH]c2c1" : < 5.70

So the reported pIC50 for "N[C@H]1CCC[C@@H]1Nc1ncc(C(F)(F)F)c(-c2c[nH]c3c(Cl)c(O)ccc23)n1" , on MB453 cells, turned out to be > 7.00

Tested on MB453 cells, the item "COC1CN([C@@H]2CCC[C@@H]2Nc2ncc(C(F)(F)F)c(-c3c[nH]c4nc(-c5c(C)noc5C)ccc34)n2)C1" showed pIC50 equal to 5.70 to 6.30
